For each entry below, report its pEC50 value.
Biological target: T1, human tissue factor pathway inhibitor (TFPI) (human, UniProt P10646 29-304, limits assumed)
T1 construct: Bought protein; also called human TFPI; hTFPI
T1 sequence (looked up): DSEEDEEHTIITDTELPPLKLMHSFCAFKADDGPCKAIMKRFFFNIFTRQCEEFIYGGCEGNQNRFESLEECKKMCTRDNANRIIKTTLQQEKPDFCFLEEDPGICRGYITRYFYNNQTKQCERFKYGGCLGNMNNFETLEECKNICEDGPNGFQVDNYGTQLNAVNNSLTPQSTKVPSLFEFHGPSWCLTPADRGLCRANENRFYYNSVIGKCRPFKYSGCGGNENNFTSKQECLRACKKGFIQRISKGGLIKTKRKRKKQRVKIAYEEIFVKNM
Assay: ELISA, Fab on coated TFPI
Schema: pEC50 number; meaning minus log10 of the concentration expressed in molar units.

Item TP-3A4 Fab (Fab, V domains shown, Human Fab from HuCal Gold, expressed in E. coli TG1) VH: QVQLVESGGGLVQPGGSLRLSCAASGFTFSSYWMHWVRQAPGKGLEWVSSISYDSSNTYYADSVKGRFTISRDNSKNTLYLQMNSLRAEDTAVYYCARYGGMDYWGQGTLVTVSS VL: DIELTQPPSVSVAPGQTARISCSGDNLRDKYASWYQQKPGQAPVLVIYSKSERPSGIPERFSGSNSGNTATLTISGTQAEDEADYYCSSYTLNPNLNYVFGGGTKLTVLG : provide pEC50 7.37

Look up and report measured pEC50 for this entry: TP-2A2 Fab (Fab, V domains shown, Human Fab from HuCal Gold, expressed in E. coli TG1) VH: QVQLVESGGGLVQPGGSLRLSCAASGFTFSNNAMNWVRQAPGKGLEWVSTISYDGSNTYYADSVKGRFTISRDNSKNTLYLQMNSLRAEDTAVYYCARQAGGWTYSYTDVWGQGTLVTVSS VL: DIELTQPPSVSVAPGQTARISCSGDNIRTYYVHWYQQKPGQAPVVVIYGDSKRPSGIPERFSGSNSGNTATLTISGTQAEDEADYYCQSYDSEADSEVFGGGTKLTVLG 9.21

In one line, give reported pEC50 of the entry TP-2C1 Fab (Fab, V domains shown, Human Fab from HuCal Gold, expressed in E. coli TG1) VH: QVQLVESGGGLVQPGGSLRLSCAASGFTFSPYVMSWVRQAPGKGLEWVSSISSSSSNTYYADSVKGRFTISRDNSKNTLYLQMNSLRAEDTAVYYCARGDSYMYDVWGQGTLVTVSS VL: DIELTQPPSVSVAPGQTARISCSGDSIGSYYAHWYQQKPGQAPVLVIYYDSKRPSGIPERFSGSNSGNTATLTISGTQAEDEADYYCQAYTGQSISRVFGGGTKLTVLG . 9.40

These measurements were taken from patent US20120269817A1.
